Values compiled from the DeepSol protein solubility set.

- TEST_SUMMARY: soluble on expression in E. coli; label from the status in PepcDB or PDB records
ASSAY_READOUT: soluble on expression in E. coli

CHAIN_SEQUENCE	ENDPOINT_VALUE
MELLVKMGWDDWFAAHAGASSDAGRPGRVVAEQRGEYRVRTADGEVAAILTGRAMRETAGDRLERPVVGDWVIVEPVAGDSTVLVRAVLPRRTILARRESGRGAEVQPVAANVDIVFIVAGLDGALNLRRLERFLAAARESGAEPVVLLTKSDLAGDPAAPAEEAATVAPGIRVMTVSSLDGAGVDEVGALLAPGVTACFIGPSGVGKSSLVNLLAGDPVMAIGAVRERDAKGRHTTTHRQLILLPGGGIVIDTPGMREFGLWQVDEGIDAAFPEIAELAAGCRFHDCSHRHEPGCAVRTALAEGGLDPGRYGSYLKLRLEEETMATLADAEGRRERKKGERRMAKGLRAVLRKKGKK	not soluble
MRACLKCKYLTNDEICPICHSPTSENWIGLLIVINPEKSEIAKKAGIDIKGKYALSVKE	soluble
MSLPITLDKKLPAVDILKSENIFVMDDKRAIHQDIRPMSILILNLMPTKVATETQLLRLLANTPLQLSVDFLYMTSHHSKTTQAEHMKTFYKTFKDIKDNYYDGLIITGAPVETMPFEKVDYWEELCQVFQWSKTHVYSTLHLCWGAQAGLYYRYSVDKVQMTDKLSGIYLQKVNEQLSPLMRGFDDCFLSPHSRYTEVLLKDINNKTNLEILASGEKVGLSILASRDMREVYSFGHLEYDRETLDNEYKRDLKAGKSPKIPENYYQDDDVTTHPIMRWNLAAATFFSNWINYAVYQETPYRLEELEKDISFYGYLEGHHHHHH	soluble
MRSKGFLHLDTEIVVPFFDVDMMNIVWHGHYVKYLEVARCALLDHIGHNYMQMLESGYGWPVIDLQLRYVRSAVFGQKLNVRASLVEWENRLKINYLITDADTGERLTRASTVQVAVDRDSHEMQLASPQVFIDAVKRALPLEHHHHHH	soluble
MLPKTWRENFFVLVREVKNLRATAKKISRHFFRKYEPQPGVFWFVFHLSRSHPFPFLKPLLSGDQARGAATPTPCMRTHLFHRIDPIKSEMGGLSTGYITFVWRGVHPRIGPIAAESLTDGKEEDEALSCGYII	not soluble
FLGELLIDLPLPVDTPSVDQCEKCRACITSCPTQAIVEDKVVDARRCISYLTIEFDGVIPEEFRKPMGNRIYGCDDCQLVCPWNRYADVTEQEDFHRRESFHNPDLVE	not soluble
MAHHHHHHMSYPYYTEFFVRFPKFKEREESERTVDPRIELEKKCQAKCVRPVNEYQSCVSRVQAKPEMKGNCLGQHEEMYMCIDHCVAKDLFNYLV	not soluble
LKQQQQQQQQQQQQQQQQQQQQQQQQQQQQQQQQQQQQQQQQQQQQQQQQQQQQQQQQQQQQQQQQQQKSQNRTKQEQGQQSQNQQDAENKKEKQESEHKAKQQKAETEVEKQGEQKKGEPMQAQAQPEKSHQDDPEFRRLEAVESARDPSFLIRAQMQLQAQQKQRPQQSQKEW	not soluble

---

- TEST_SUMMARY: soluble on expression in E. coli; label from the status in PepcDB or PDB records
ASSAY_READOUT: soluble on expression in E. coli

CHAIN_SEQUENCE	ASSAY_READOUT	ENDPOINT_VALUE
MQFFTSDTHFFHKDLLGDSDFAPRPFASVDEMNQTIIDNWNARVAETDTVYHLGDIALYFTKPAIKSDEAVFNVLSQLNGHLELIKGNHDSRALFKYLAAHNFSDHGQPKFAFHDVGALIKYDHRQYYLTHYPMMLGIVNQIINLHGHIHHYAVPVKENINVGVDTPEQRYLTTSVPFGTPFSPTEIEQMVTGKAQEFREKQLEHHHHHH	soluble on expression in E. coli	not soluble
AHHHHHHGSVEVKKHKFPGVYVVIDDDGSEKIATKNLVPGQRVYGERVIKWEGEEYRIWNPHRSKLGAAIVNGLKNFPIKPGKSVLYLGIASGTTASHVSDIVGWEGKIYGIEFSPRVLRELVPIVEERRNIIPILGDATKPEEYRALVTKVDVIFEDVAQPTQAKILIDNAKAYLKRGGYGMIAVKSRSIDVTKEPEQVFKEVERELSEYFEVIERLNLEPYEKDHALFVVRKP	soluble on expression in E. coli	soluble
GMEQLQKRKIYDTTASNASTGILNGKSSNVLNWDDVRFSWAYPLYKNMLANFWTPFEINMSHDAKQFPTLTETEQEAFKKIIGLLAFLDSVQTDYSMRAAEYLTDSSLAALMSVLSFQEVVHNQSYSYVLSSLVPKATQDEIFEYWKHDDVLKERNEFIIDGYEKFVDNPTPKTFLESIVYDVILEGLNFYSGFAFFYNLARNQKMVSTSTMINYINRDEQLHVYLFTNIFKELLVEFPELNTEETKTFVKTTLMKAADLEKDWFRYIIGDKIPGINPEDMETYISFIANKRAVQLGMEKPYPEIKHNPMKWIRAYEDVNSGKSDFFEQKSRQYAKVSADNGFDEL	soluble on expression in E. coli	soluble
MSELNLSPDKLTVLLMGGSFGAGNIKETLDELLDTDRDFQILVITGKNESLKEKIEKKLMSRYHDKNVCVLGYTDKMNDILASIDVLVSKPGGLTTTEALLKDVPMIVPYYIPGQEEENLDFLSNCGAALRTTKKYNLSILLKVLIDDPSRLEMLKRNIKSIRKSNSAQNIANLILNIISGLEHHHHHH	soluble on expression in E. coli	not soluble
MGSDKIHHHHHHMSLNLRDLEYFYQLSKLRSFTNVAKHFRVSQPTISYAIKRLETYYDCDLFYKDSSHQVVDLTPEGELLAMRTNEILSELNHTKKAIHRSSMKDFKVGFPPIISSYLLSKQDNLNFFNALHMIYGGSNELLSLLLNEEIDSSLLGSLEKIKHPQLEIEELFQKEFFIIMSDSHPLANEKELGFKDLLNEDFILLGEHNIHFNAFNRLNEKYNQSANVVLKLDDAHTIKELVRKNLGISLMADIRLSEDFKNLVKVPFIEEDKQFFHINYAYQKNSILSESEKNFLEILKTLK	soluble on expression in E. coli	not soluble
MRISLKQLNVFTVIAQEKTMTKAAERLYITKPAVSLSLSELEKNLGYKVFDRVNNRLVLNSEGRQLLPLADELLERAEVIEHQFATDSQLTGSLNIGASDTIGNHIAPVLLSKFQQQYPCDIQQLFISNTAQIINRLLEFQLDIGLVEGKAHHPKLNMIEWRRDDMYLVCSPSHPLATKAQVTLDDLEHSTWLLREEGSGSREYFINHIAANLNDWHESLQLHTTEAIINCCAENMGLACLSQLAAQNAINDGRLVKLAYNKTLARQYWLLVHKEKYQTPLLQYFMNFIQQK	soluble on expression in E. coli	not soluble
MSDYQMFEVQVSQVEPLTEQVKRFTLVATDGKPLPAFTGGSHVIVQMSDGDNQYSNAYSLLSSPHDTSCYQIAVRLEENSRGGSRFLHQQVKVGDRLTISTPNNLFALIPSARKHLFIAGGIGITPFLSHMAELQHSDVDWQLHYCSRNPESCAFRDELVQHPQAEKVHLHHSSTGTRLELARLLADIEPGTHVYTCGPEALIEAVRSEAARLDIAADTLHFEQFAIEDKTGDAFTLVLARSGKEFVVPEEMTILQVIENNKAAKVECLCREGVCGTCETAILEGEADHRDQYFSDEERASQQSMLICSRAKGKRLVLDL	soluble on expression in E. coli	soluble
MMLPKEIMMPNDNPYALHRVKVLKVYSLTETEKLFLFRFEDPELAEKWTFKPGQFVQLTIPGVGEVPISICSSPMRKGFFELCIRKAGRVTTVVHRLKPGDTVLVRGPYGNGFPVDEWEGMDLLLIAAGLGTAPLRSVFLYAMDNRWKYGNITFINTARYGKDLLFYKELEAMKDLAEAENVKIIQSVTRDPNWPGLKGRPQQFIVEANTNPKNTAVAICGPPRMYKSVFEALINYGYRPENIFVTLERRMKCGIGKCGHCNVGTSTSWKYICKDGPVFTYFDIVSTPGLLD	soluble on expression in E. coli	not soluble
GIQPVISAQEQETQIVLYGKLVEARQKHANKMDVPPAILATNKILVDMAKMRPTTVENVKRIDGVSEGKAAMLAPLLEVIKHFCQTNSVQTDLFSSTKPQEEQ	soluble on expression in E. coli	soluble
AHHHHHHGSIIIMDNGGQYVHRIWRTLRYLGVEAKIIPNTTPLDEIKAMKPKGIIFSGGPSLENTGNCEKILEHYEEFNVPILGICLGHQLIAKFFGGEVGRGEKAEYSLVEIEIIDENDIFKGLPRKVRVWESHMDEVKKLPPKFKLLARSDTCPVEAMKHEELPIYGVQFHPEVAHTEHGADILRNFAKICGEL	soluble on expression in E. coli	soluble
MFGKGGLGNLMKQAQQMQEKMQKMQEEIAQLEVTGESGAGLVKVTINGAHNCRRVEIDPSLLEDDKEMLEDLVAAAFNDAARRIEETQKEKMASVSSGMQLPPGFKMPF	soluble on expression in E. coli	soluble
MSLRHMQIETVNLPLARPMAAENGTRHAVTVIRVALEEKGFIGQGECTPAAHYGESADSVCRQLSAIREAIENGLTIEQLQQNLSPGAARNALDCALWRLNTALEKQTLWQRVGIHPPTSVVCAQTLALDSVEKMATAASNAVSHGALLLKIKLDRELILEKVAAIRAAAPNARLIIDARASWSGLDLHSLSTALLPYQVAMIEQPLPVGKDEDLQRFAHPIPICADESCRHSGDIVGLRRRYDMINIKLDKCGGLTEALAMVREAHFHGLRIMVGCTLGSSMAMEAALPVAADAEHVDLDGPIWLAADSSPYLTYNLGRIWLEGHHHHHH	soluble on expression in E. coli	soluble
